meta.source: patent US8148320B2

Biological target: AbI SH2 domain (Homo sapiens, UniProt P00519)
Construct: GST-tagged AbI SH2 domain; gift of Bruce Mayer (University of Connecticut Health Center)
Sequence (P00519 127-217 limits assumed): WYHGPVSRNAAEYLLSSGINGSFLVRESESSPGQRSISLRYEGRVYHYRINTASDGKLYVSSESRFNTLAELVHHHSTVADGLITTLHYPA
Assay: Surface plasmon resonance (Biacore) binding of biotinylated Abi1 peptides to GST-tagged AbI SH2 domain
Conditions: peptide on SA chip, varying AbI SH2 concentration, 1:1 binding model; read-out: dissociation constant, KD
endpoint_name: Kd (nM)
// note: answer is a bare numeric in nM

Looking for the measured Kd of pY213: 14-residue Abi1 peptide containing phosphorylated tyrosine 213; Abi1 14-mer sequence vkpptvpndymtsp (SEQ ID NO:5) (VKPPTVPNDYMTSP) , can you help?
33.2
